Tested on: rat stomach
Settings: in vivo
Structures can show the parent of a compound that is named as a salt.
measured parameter: UG: Intensity of ulceration produced in the rat stomach

>  <compound>
CCCCC1C(=O)N(c2ccccc2)N(c2ccccc2)C1=O [LAS 11871]

>  <result>
+

$$$$
>  <compound>
CCCCC1C(=O)N(c2ccccc2)N(c2ccccc2)C1=O [LAS 6671]

>  <result>
+

$$$$
>  <compound>
CCCCC1C(=O)N(c2ccccc2)N(c2ccccc2)C1=O [Phenylbutazone]

>  <result>
++

$$$$
>  <compound>
CCCCC1C(=O)N(c2ccccc2)N(c2ccccc2)C1=O [Piperazine salt of Phenylbutazone]

>  <result>
+

$$$$
